Molecular target: T1, Human CD19-his protein (human, UniProt P15391 20-291)
T1 construct: bought protein; also called human CD19 protein; recombinant human CD19-His; not shown: His tag
T1 sequence (looked up): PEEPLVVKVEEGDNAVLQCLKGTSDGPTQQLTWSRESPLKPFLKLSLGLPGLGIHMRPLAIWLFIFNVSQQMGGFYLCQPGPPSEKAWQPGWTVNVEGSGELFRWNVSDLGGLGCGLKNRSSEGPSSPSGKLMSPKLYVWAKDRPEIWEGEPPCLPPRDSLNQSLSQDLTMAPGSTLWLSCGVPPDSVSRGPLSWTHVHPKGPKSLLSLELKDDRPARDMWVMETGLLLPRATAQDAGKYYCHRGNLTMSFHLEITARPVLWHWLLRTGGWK
Assay: ELISA, antibody at 0.0001 nM
# OD450 per entry

binder	OD450
F3.81.2 (antibody, human IgG1, V domains shown, human-murine chimeric antibody, human IgG1) VH: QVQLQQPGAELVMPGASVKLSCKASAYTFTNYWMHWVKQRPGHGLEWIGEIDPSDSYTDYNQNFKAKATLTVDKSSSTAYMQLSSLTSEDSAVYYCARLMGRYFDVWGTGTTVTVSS VL: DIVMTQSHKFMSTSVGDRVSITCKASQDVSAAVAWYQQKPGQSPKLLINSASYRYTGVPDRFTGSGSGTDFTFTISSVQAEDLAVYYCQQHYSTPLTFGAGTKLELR	0.05
F4.15.9 (antibody, human IgG1, V domains shown, human-murine chimeric antibody, human IgG1) VH: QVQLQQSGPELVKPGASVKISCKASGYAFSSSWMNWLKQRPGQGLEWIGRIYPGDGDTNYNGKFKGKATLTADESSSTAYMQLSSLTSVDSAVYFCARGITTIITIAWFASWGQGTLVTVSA VL: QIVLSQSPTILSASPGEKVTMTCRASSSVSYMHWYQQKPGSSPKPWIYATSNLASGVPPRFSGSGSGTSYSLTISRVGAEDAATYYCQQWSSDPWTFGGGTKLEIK	0.06
F3.124.7 (antibody, human IgG1, V domains shown, human-murine chimeric antibody, human IgG1) VH: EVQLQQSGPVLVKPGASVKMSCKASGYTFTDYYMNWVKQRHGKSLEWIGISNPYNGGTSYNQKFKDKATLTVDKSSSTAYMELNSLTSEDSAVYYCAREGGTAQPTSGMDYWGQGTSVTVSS VL: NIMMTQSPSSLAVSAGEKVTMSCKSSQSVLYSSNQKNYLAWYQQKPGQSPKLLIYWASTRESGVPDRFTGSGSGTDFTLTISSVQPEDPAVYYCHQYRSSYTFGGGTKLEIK	0.08
